- Tested on: HepG2
- test-summary: Anticancer activity against human HepG2 cells assessed as inhibition of cell growth incubated for 24 hrs by MTT assay
- Format: functional, cell-based
- applied-conditions: HepG2, 24 h
property: IC50 (µM)
Write the answer as a number in µM, unit excluded.

Use these answered entries as a reference point.
## Task Could you please provide reported IC50 for O=C(Nc1nnc2c3ccccc3nc(Sc3ccc(Br)cc3)n12)c1ccc(Cl)c([N+](=O)[O-])c1 ? Thanks!
## Result 18.2

## Task Could you please provide reported IC50 for O=[N+]([O-])c1cccc(/C=N/c2nnc3c4ccccc4nc(Nc4ccccc4)n23)c1 ? Thanks!
## Result 44.1

---
## Task Could you please provide reported IC50 for COc1ccc(/C=N/c2nnc3c4ccccc4nc(Nc4ccc(C)cc4N)n23)cc1O ? Thanks!
## Result 9.8
